Biological target: UniProt Q5VWK5
Sequence (Q5VWK5 whole entry): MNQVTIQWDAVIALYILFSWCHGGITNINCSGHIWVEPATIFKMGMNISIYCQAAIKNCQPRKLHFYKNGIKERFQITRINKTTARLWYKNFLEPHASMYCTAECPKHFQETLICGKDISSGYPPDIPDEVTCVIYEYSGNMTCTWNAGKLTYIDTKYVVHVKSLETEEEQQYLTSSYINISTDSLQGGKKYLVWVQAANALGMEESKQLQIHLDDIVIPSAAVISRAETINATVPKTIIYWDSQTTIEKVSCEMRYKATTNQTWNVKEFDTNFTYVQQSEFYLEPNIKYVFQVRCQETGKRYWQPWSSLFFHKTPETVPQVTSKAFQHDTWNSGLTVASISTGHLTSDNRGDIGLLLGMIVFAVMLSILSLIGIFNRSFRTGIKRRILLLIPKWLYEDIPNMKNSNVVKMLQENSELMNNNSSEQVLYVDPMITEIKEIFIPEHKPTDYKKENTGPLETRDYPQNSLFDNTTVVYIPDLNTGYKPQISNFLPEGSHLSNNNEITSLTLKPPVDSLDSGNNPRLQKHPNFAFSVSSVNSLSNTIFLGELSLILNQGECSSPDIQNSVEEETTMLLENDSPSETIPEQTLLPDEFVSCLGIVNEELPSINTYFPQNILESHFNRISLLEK
Test: Inhibition of interleukin-23 receptor in human DB cells assessed as reduction in IL-23-stimulated STAT3 phosphorylation incubated for 30 mins by HTRF assay
Format: cell-based
pIC50: −log10 of the molar value.
property_measured: pIC50

Some compounds with recorded pIC50:
>>> reported_result("CC(=O)N[C@H]1CCSC[C@@H](C(=O)N[C@@H](Cc2ccc(F)c(F)c2)C(=O)N[C@@H](Cc2ccc3ccccc3c2)C(=O)NC(C)(C)C(=O)N[C@@H](CCC(=O)O)C(=O)N[C@@H](CC(N)=O)C(=O)NCC(N)=O)NC(=O)[C@H](CCC(N)=O)NC(=O)[C@H](Cc2c[nH]c3ccccc23)NC(=O)[C@H]([C@@H](C)O)NC(=O)[C@H](CCC(N)=O)NC1=O")
"7.60 to 8.00"
>>> reported_result("CC(=O)N[C@H]1CCSC[C@@H](C(=O)N[C@@H](Cc2ccc(OCCN)cc2)C(=O)N[C@@H](Cc2ccc3ccccc3c2)C(=O)N[C@@](C)(CCCCN)C(=O)N[C@@H](CCCCNC(=O)CC(C)C)C(=O)N[C@@H](CC(N)=O)C(=O)NCC(N)=O)NC(=O)[C@H](CCC(N)=O)NC(=O)[C@H](Cc2c[nH]c3ccccc23)NC(=O)[C@H]([C@@H](C)O)NC(=O)[C@H](CCC(N)=O)NC1=O")
"> 8.00"
>>> reported_result("CC(=O)NCCCC[C@H](NC(=O)C(C)(C)NC(=O)[C@H](Cc1ccc2ccccc2c1)NC(=O)[C@H](Cc1ccc(OCCN)cc1)NC(=O)[C@@H](NC(=O)[C@H](CCC(N)=O)NC(=O)[C@H](Cc1c[nH]c2ccccc12)NC(=O)[C@@H](NC(=O)[C@@H](NC(=O)[C@@H](NC(C)=O)C(C)(C)S)[C@@H](C)O)[C@@H](C)O)C(C)(C)S)C(=O)N[C@@H](CC(N)=O)C(=O)N[C@@H](CC(N)=O)C(N)=O")
"> 8.00"
>>> reported_result("CC(=O)N[C@@H](CS)C(=O)N[C@@H](CCC(N)=O)C(=O)N[C@H](C(=O)N[C@@H](Cc1c[nH]c2ccccc12)C(=O)N[C@@H](CCC(N)=O)C(=O)N[C@@H](CS)C(=O)N[C@@H](Cc1ccc(O)cc1)C(=O)N[C@@H](Cc1c[nH]c2ccccc12)C(=O)N[C@@H](CCC(C)C)C(=O)N[C@@H](CCC(=O)O)C(=O)N[C@@H](CC(N)=O)C(=O)NCC(=O)N[C@@H](CCCNC(=N)N)C(N)=O)[C@@H](C)O")
"< 6.00"
>>> reported_result("CC(=O)NCCOc1ccc(C[C@H](NC(=O)[C@@H]2CSCC[C@H](NC(C)=O)C(=O)N[C@@H](CCC(N)=O)C(=O)N[C@@H]([C@@H](C)O)C(=O)N[C@@H](Cc3c[nH]c4ccccc34)C(=O)N[C@@H](CCC(N)=O)C(=O)N2)C(=O)N[C@@H](Cc2ccc3ccccc3c2)C(=O)N[C@@](C)(CCCCN)C(=O)N[C@@H](CCC(=O)O)C(=O)N[C@@H](CC(N)=O)C(=O)NCC(N)=O)cc1")
"> 8.00"
>>> reported_result("CC(=O)N[C@@H](CS)C(=O)N[C@@H](C)C(=O)N[C@@H](CC(=O)O)C(=O)N[C@@H](Cc1c[nH]c2ccccc12)C(=O)N[C@H](C(=O)N[C@H](C(=O)N[C@@H](Cc1ccc(O)cc1)C(=O)N[C@@H](Cc1c[nH]c2ccccc12)C(=O)N[C@@H](Cc1cnc[nH]1)C(=O)N[C@H](C(=O)N[C@@H](Cc1ccccc1)C(=O)NCC(=O)NCCOCC(=O)N[C@H](CCCCN)C(N)=O)[C@@H](C)O)C(C)(C)S)C(C)C")
"6.00 to 7.00"
>>> reported_result("CC(=O)NCCCC[C@H](NC(=O)[C@](C)(CCCN)NC(=O)[C@H](Cc1c[nH]c2ccccc12)NC(=O)[C@H](Cc1ccc(O)cc1)NC(=O)[C@@H]1CSCC[C@H](NC(C)=O)C(=O)N[C@@H](CCC(N)=O)C(=O)N[C@@H]([C@@H](C)O)C(=O)N[C@@H](Cc2c[nH]c3ccccc23)C(=O)N[C@@H](CCC(N)=O)C(=O)N1)C(=O)N[C@@H](CC(N)=O)C(=O)NCC(N)=O")
"7.60 to 8.00"
>>> reported_result("CC(=O)N[C@H]1CCSC[C@@H](C(=O)N[C@@H](Cc2ccc(O)cc2)C(=O)N[C@@H](Cc2c[nH]c3ccccc23)C(=O)N[C@@H](CCCNC(=N)N)C(=O)N[C@@H](CCC(=O)O)C(=O)N[C@@H](CC(N)=O)C(=O)NCC(=O)NCCOCC(=O)N[C@H](CCCCN)C(N)=O)NC(=O)[C@H](CCC(N)=O)NC(=O)[C@H](Cc2c[nH]c3ccccc23)NC(=O)[C@H]([C@@H](C)O)NC(=O)[C@H](CCC(N)=O)NC1=O")
"7.00 to 7.60"

Query string: Which pIC50 value is on record for COc1ccc(C[C@H](NC(=O)[C@@H](NC(=O)[C@H](CCC(N)=O)NC(=O)[C@H](Cc2c[nH]c3ccccc23)NC(=O)[C@@H](NC(=O)[C@H](CCC(N)=O)NC(=O)[C@@H](NC(C)=O)C(C)(C)S)[C@@H](C)O)C(C)(C)S)C(=O)N[C@@H](Cc2ccc3ccccc3c2)C(=O)N[C@@](C)(CCCCN)C(=O)N[C@@H](CCCCNC(C)=O)C(=O)N[C@@H](CC(N)=O)C(=O)NCC(N)=O)cc1 ?
Result string: > 8.00

Query string: May I ask what pIC50 has been recorded for COc1ccc(C[C@H](NC(=O)[C@@H](NC(=O)[C@H](CCC(N)=O)NC(=O)[C@H](Cc2c[nH]c3ccccc23)NC(=O)[C@@H](NC(=O)[C@H](CCC(N)=O)NC(=O)[C@@H](NC(=O)Cc2ccc(F)cc2)C(C)(C)S)[C@@H](C)O)C(C)(C)S)C(=O)N[C@@H](Cc2ccc3ccccc3c2)C(=O)N[C@@](C)(CCCCN)C(=O)N[C@@H](CCCCNC(C)=O)C(=O)N[C@@H](CC(N)=O)C(=O)NCC(N)=O)cc1 ?
Result string: > 8.00
